Assay: Apparent permeability from basolateral to apical side in human Caco2 cells after 150 mins by LC-MS/MS analysis
Format: ADME, cell-based
Settings: Caco-2
assay.readout: Papp B→A at […] (×10⁻⁶ cm/s)
Respond with the bare value in ×10⁻⁶ cm/s.

Qu. I am curious: what Papp B→A at […] value has been reported for `C[C@]1(COc2ccc(OC(F)(F)F)cc2)Cn2cc([N+](=O)[O-])nc2O1` ?
Ans. 24.7

* * *

Test system: Trypanosoma cruzi
Assay: […] activity against Trypanosoma cruzi infected in human MRC-5 cells by luciferase reporter gene assay
Format: functional, cell-based
Settings: MRC5
assay.readout: IC50 (nM)
Respond with the bare value in nM.

[
  {
    "molecule": "O=[N+]([O-])c1cn2c(n1)OC(COc1ccc(-c3ccc(F)cc3)cc1)CC2 (configuration not stated)",
    "assay.result": 63
  }
]

Qu. I am curious: what IC50 value has been reported for O=[N+]([O-])c1cn2c(n1)OC(COc1ccc(OC(F)(F)F)cc1)CC2 (configuration not stated) ?
Ans. 61

* * *

Test: Extrapolated AUCinfinity in swiss albino mouse plasma at 40 mg/kg, po by LC-MS/MS analysis
assay.readout: AUC(0-inf)
Write the quantity with the unit trailing the number.

Qu. I am curious: what AUC(0-inf) value has been reported for O=[N+]([O-])c1cn2c(n1)OC(COCc1ccc(-c3ccc(OC(F)(F)F)cc3)cc1)CC2 (stereo unspecified) ?
Ans. 47100 ng·h/mL

* * *

Assay: Apparent permeability from apical to basolateral side in human Caco2 cells after 150 mins by LC-MS/MS analysis
Format: ADME, cell-based
Conditions: Caco-2
assay.readout: Papp A→B at […] (×10⁻⁶ cm/s)
Respond with the bare value in ×10⁻⁶ cm/s.

Qu. I am curious: what Papp A→B at […] value has been reported for `C[C@]1(COc2ccc(OC(F)(F)F)cc2)Cn2cc([N+](=O)[O-])nc2O1` ?
Ans. 22.6
